test: clinical; details: human, in vivo
test-readout: CL renal (mL/min/kg)

[[record]]
compound = "C=CC1=C(C(=O)O)N2C(=O)[C@@H](NC(=O)/C(=N\\OCC(=O)O)c3csc(N)n3)[C@H]2SC1"
readout_number = 0.42

[[record]]
compound = "CC[C@]1(O)C[C@@H]2CN(CCc3c([nH]c4ccccc34)[C@@](C(=O)OC)(c3cc4c(cc3OC)N(C)[C@H]3[C@@](O)(C(=O)OC)[C@H](OC(C)=O)[C@]5(CC)C=CCN6CC[C@]43[C@@H]65)C2)C1"
readout_number = 2.64

[[record]]
compound = "Nc1ccc(S(=O)(=O)c2ccc(N)cc2)cc1"
readout_number = 0.05

[[record]]
compound = "Cc1ncsc1CCCl"
readout_number = 0.03

[[record]]
compound = "O=C(N[C@H](CO)[C@H](O)c1ccc([N+](=O)[O-])cc1)C(Cl)Cl"
readout_number = 0.24

[[record]]
compound = "Nc1nc(NC2CC2)c2ncn([C@H]3C=C[C@@H](CO)C3)c2n1"
readout_number = 0.15

[[record]]
compound = "CCC(C)(C)NCC(O)COc1ccccc1C(=O)CCc1ccccc1 (centres undefined)"
readout_number = 0.04

[[record]]
compound = "CCOc1cc(CC(=O)N[C@@H](CC(C)C)c2ccccc2N2CCCCC2)ccc1C(=O)O [REPAGLINIDE]"
readout_number = 0.12

[[record]]
compound = "CCNCC(O)c1cccc(O)c1 (centres undefined)"
readout_number = 3.96


----------
experiment: clinical; conditions: human, in vivo
Group membership follows CL renal per the scheme lower range: < 0.2 mL/min/kg; middle range: ≥ 0.2 mL/min/kg and < 2 mL/min/kg; upper range: ≥ 2 mL/min/kg

[[record]]
compound = "CCCCC(=O)N(Cc1ccc(-c2ccccc2-c2nnn[nH]2)cc1)[C@H](C(=O)O)C(C)C"
label = "lower range"

[[record]]
compound = "CCCCS(=O)(=O)N[C@@H](Cc1ccc(OCCCCC2CCNCC2)cc1)C(=O)O"
label = "middle range"

[[record]]
compound = "NNc1nncc2ccccc12 [HYDRALAZINE]"
label = "upper range"

[[record]]
compound = "CN(C)[C@@H]1C(O)=C(C(N)=O)C(=O)[C@@]2(O)C(O)=C3C(=O)c4c(O)cccc4[C@@](C)(O)[C@H]3C[C@@H]12"
label = "middle range"

[[record]]
compound = "Nc1ccn([C@@H]2O[C@H](CO)[C@@H](O)C2(F)F)c(=O)n1"
label = "upper range"

[[record]]
compound = "CCN1CCCC1CNC(=O)c1cc(S(N)(=O)=O)ccc1OC (centres undefined) [SULPIRIDE]"
label = "middle range"

[[record]]
compound = "Cc1cccc(Nc2ccncc2S(=O)(=O)NC(=O)NC(C)C)c1 [TORSEMIDE]"
label = "lower range"

[[record]]
compound = "CCC[C@@H]1C[C@@H](C(=O)N[C@@H]([C@H]2O[C@H](SC)[C@H](O)[C@@H](O)[C@H]2O)[C@H](C)Cl)N(C)C1"
label = "middle range"

[[record]]
compound = "c1ccc(C2(c3ccccc3)CC2C2=NCCN2)cc1 (centres undefined)"
label = "upper range"

[[record]]
compound = "CCOc1ccccc1OCCN[C@H](C)Cc1ccc(OC)c(S(N)(=O)=O)c1"
label = "lower range"

[[record]]
compound = "COc1ccc(CCNCC(O)COc2cccc(C)c2)cc1OC (centres undefined)"
label = "lower range"

[[record]]
compound = "CC1(C)S[C@@H]2[C@H](NC(=O)[C@H](C(=O)O)c3ccsc3)C(=O)N2[C@H]1C(=O)O"
label = "middle range"

[[record]]
compound = "OCCN1C[C@H](O)[C@@H](O)[C@H](O)[C@H]1CO"
label = "middle range"

[[record]]
compound = "Cc1cccc(C)c1NC(=O)NCCCNC(C)C"
label = "upper range"

[[record]]
compound = "CN(C)CCC=C1c2ccccc2COc2ccccc21 [DOXEPIN]"
label = "lower range"

[[record]]
compound = "CCOC(=O)C1(c2ccccc2)CCC=CC1N(C)C (centres undefined)"
label = "middle range"

[[record]]
compound = "CCCc1cc(=O)[nH]c(=S)[nH]1"
label = "lower range"

[[record]]
compound = "NS(=O)(=O)c1cc(C(=O)O)cc(N2CCCC2)c1Oc1ccccc1 [PIRETANIDE]"
label = "middle range"

[[record]]
compound = "COc1cccc(OC)c1C(=O)N[C@@H]1C(=O)N2[C@@H]1SC(C)(C)[C@@H]2C(=O)O"
label = "upper range"

[[record]]
compound = "CC[C@H](C)C(=O)O[C@H]1C[C@H](O)C=C2C=C[C@H](C)[C@H](CC[C@@H](O)C[C@@H](O)CC(=O)O)[C@H]21"
label = "upper range"

[[record]]
compound = "Cc1nc2n(c(=O)c1CCN1CCC(c3noc4cc(F)ccc34)CC1)CCCC2"
label = "lower range"

[[record]]
compound = "O=C(O)Cc1ccccc1Nc1c(Cl)cccc1Cl"
label = "lower range"

[[record]]
compound = "O=P1(NCCCl)OCCCN1CCCl (centres undefined) [IFOSFAMIDE]"
label = "middle range"


----------
assay: Total body clearance in human; details: in vivo
Measured clearance, listed per entry.
test-readout: clearance

[[record]]
compound = "CCN1CCN(C(=O)N[C@@H](C(=O)N[C@@H]2C(=O)N3[C@@H]2SC(C)(C)[C@@H]3C(=O)O)c2ccccc2)C(=O)C1=O"
result = "4 mL/min/kg"

[[record]]
compound = "Cc1onc(-c2c(Cl)cccc2Cl)c1C(=O)N[C@@H]1C(=O)N2[C@@H]1SC(C)(C)[C@@H]2C(=O)O"
result = "2 mL/min/kg"

[[record]]
compound = "CC[C@@]1(O)C(=O)OCc2c1cc1n(c2=O)Cc2c-1nc1ccccc1c2N"
result = "6.5 mL/min/kg"

[[record]]
compound = "C=CC[C@@H]1/C=C(\\C)C[C@H](C)C[C@H](OC)[C@H]2O[C@@](O)(C(=O)C(=O)N3CCCC[C@H]3C(=O)O[C@H](/C(C)=C/[C@@H]3CC[C@@H](O)[C@H](OC)C3)[C@H](C)[C@@H](O)CC1=O)[C@H](C)C[C@@H]2OC [TACROLIMUS ANHYDROUS]"
result = "0.7 mL/min/kg"

[[record]]
compound = "CC1(C)S[C@@H]2[C@H](NC(=O)[C@H](NC(=O)N3CCN(S(C)(=O)=O)C3=O)c3ccccc3)C(=O)N2[C@H]1C(=O)O"
result = "5.23 mL/min/kg"

[[record]]
compound = "N[C@@H](Cc1ccc(N(CCCl)CCCl)cc1)C(=O)O"
result = "7 mL/min/kg"


----------
assay: clinical; conditions: human, in vivo
Criterion: CL renal strictly less than 1 mL/min/kg. Met: true. Not met: false.

[[record]]
compound = "CNS(=O)(=O)CCc1ccc2[nH]cc(C3CCN(C)CC3)c2c1"
label = "false"

[[record]]
compound = "COc1cc(NCc2ccc3nc(N)nc(N)c3c2C)cc(OC)c1OC [TRIMETREXATE]"
label = "true"

[[record]]
compound = "CO/N=C(\\C(=O)N[C@@H]1C(=O)N2C(C(=O)O)=CCS[C@H]12)c1csc(N)n1"
label = "false"

[[record]]
compound = "CCN(CC)CCNC(=O)c1cc(Br)c(N)cc1OC [BROMOPRIDE]"
label = "false"

[[record]]
compound = "CN1CCN(c2c(F)cc3c(=O)c(C(=O)O)cn(CCF)c3c2F)CC1"
label = "false"

[[record]]
compound = "O=C1Cc2cc(CCN3CCN(c4nsc5ccccc45)CC3)c(Cl)cc2N1"
label = "true"

